Tested on: HMEC1
test_protocol: Inhibition of cells growth by colorimetric assay (SRB), HMEC1
Assay type: cell-based
experimental_parameters: Homo sapiens, HMEC-1, 48 h, read-out: HMEC-1 LC50, HMEC-1; SRB, 48 hours exposure
We begin with a simple list: items and their reported LC50.

>  <compound>
C=COC(=O)Oc1cc2c(cc1OC)[C@@]1(CS[C@@H]3c4c(OC(C)=O)c(C)c5c(c4[C@H](COC1=O)N1C3[C@H]3c4c(cc(C)c(OC)c4O)C[C@@H]([C@@H]1O)N3C)OCO5)N(C(=O)OC=C)CC2 (some centres unmarked)

>  <LC50>
0.0961 µM

$$$$
>  <compound>
COc1cc2c(cc1OC(=O)Cc1cc(=O)oc3cc(N(C)C)ccc13)CCN[C@]21CS[C@@H]2c3c(OC(C)=O)c(C)c4c(c3[C@H](COC1=O)N1C2[C@H]2c3c(cc(C)c(OC)c3OC(=O)Cc3cc(=O)oc5cc(N(C)C)ccc35)C[C@@H]([C@@H]1O)N2C)OCO4 (some centres unmarked)

>  <LC50>
10.1 µM

$$$$
